Taken from patent US9850283B2.

Known IC50 of a selection of compounds
# EXPERIMENTAL_SYSTEM: Human PD-L1/PD-1 (Homo sapiens, UniProt Q9NZQ7)
# Construct: made in house; host or cells: HEK293T
# Sequence (Q9NZQ7 with tags, fused parts or gaps): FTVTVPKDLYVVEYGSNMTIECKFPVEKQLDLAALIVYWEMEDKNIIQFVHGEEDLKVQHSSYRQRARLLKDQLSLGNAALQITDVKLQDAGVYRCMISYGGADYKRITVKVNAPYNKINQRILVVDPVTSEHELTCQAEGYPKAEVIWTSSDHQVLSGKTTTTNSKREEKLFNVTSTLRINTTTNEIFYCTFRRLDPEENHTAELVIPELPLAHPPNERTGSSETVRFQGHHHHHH
# PROTOCOL_TEXT: HTRF PD-1-Ig/PD-L1-His binding assay (human PD-L1)
# PROTOCOL_CONDITIONS: cluster symbol; read-out: HTRF IC50 cluster
Positions of bridges follow the written chain, without caps; N, C: chain ends. Non-standard residues stand in square brackets, D forms with d. Residues, ends and D or L forms follow the SMILES beside them. ξ: configuration not given here. Phe(4-CH2NH2) = NCc1ccc(C[C@H](N)C(=O)O)cc1; Bta = N[C@@H](Cc1csc2ccccc12)C(=O)O; NMeF = CN[C@@H](Cc1ccccc1)C(=O)O; NMeNle = CCCC[C@H](NC)C(=O)O; NMeA = CN[C@@H](C)C(=O)O; dAze = O=C(O)[C@H]1CCN1; ξC = NC(CS)C(=O)O; Sar = CNCC(=O)O

CCCC[C@H]1C(=O)N[C@@H](CCCNC(=N)N)C(=O)NC(C(=O)NCC(N)=O)CSCC(=O)N[C@@H](Cc2ccc(O)cc2)C(=O)N(C)[C@@H](C)C(=O)N[C@@H](CC(N)=O)C(=O)N2CCC[C@H]2C(=O)N[C@@H](Cc2cnc[nH]2)C(=O)N[C@@H](CC(C)C)C(=O)N2C[C@H](O)C[C@H]2C(=O)N[C@@H](Cc2c[nH]c3ccccc23)C(=O)N[C@@H](CO)C(=O)N[C@@H](Cc2c[nH]c3ccccc23)C(=O)N(C)[C@@H](COCC)C(=O)N1C (stereo partly shown) = 0.385 to 6.74 nM
CCCC[C@H]1C(=O)N(C)CC(=O)N[C@@H](CC(=O)O)C(=O)N[C@@H](C(C)C)C(=O)N(C)[C@@H](Cc2ccccc2)C(=O)N[C@@H](Cc2ccc(CN)cc2)C(=O)N(C)CC(=O)N[C@@H](Cc2csc3ccccc23)C(=O)N[C@@H](Cc2ccc(O)cc2)C(=O)N[C@@H](CC(C)C)C(=O)N[C@H](C(=O)NCC(N)=O)CSCC(=O)N[C@@H](Cc2ccccc2)C(=O)N(C)[C@@H](Cc2ccccc2)C(=O)N1C [Example 3141] ({CH2CO}-F[NMeF][NMeNle][Sar]DV[NMeF][Phe(4-CH2NH2)][Sar][Bta]YLCG-NH2; thioether N-13) = 6.76 to 30.3 nM

Entry CCCC[C@H]1C(=O)N(C)[C@@H](CCCC)C(=O)N[C@@H](CCCNC(=N)N)C(=O)NC(C(=O)N[C@@H](CO)C(N)=O)CSCC(=O)N[C@@H](Cc2ccc(O)cc2)C(=O)N(C)[C@@H](C)C(=O)N[C@@H](CC(N)=O)C(=O)N2CCC[C@H]2C(=O)N[C@@H](Cc2cnc[nH]2)C(=O)N[C@@H](CO)C(=O)N2CCC[C@H]2C(=O)N[C@@H](Cc2c[nH]c3ccccc23)C(=O)N[C@@H](CO)C(=O)N[C@@H](Cc2c[nH]c3ccccc23)C(=O)N1C (stereo partly shown) [Example 9077] ({CH2CO}-Y[NMeA]NPHSPWSW[NMeNle][NMeNle]R[ξC]S-NH2; thioether N-14) , tested on Human PD-L1/PD-1 (Homo sapiens, UniProt Q9NZQ7), has a reported IC50 of 6.76 to 30.3 nM

Human PD-L1/PD-1 (Homo sapiens, UniProt Q9NZQ7) data for CCCC[C@H]1C(=O)N2CC[C@@H]2C(=O)N[C@@H](CC(=O)O)C(=O)N[C@@H](C(C)C)C(=O)N(C)[C@@H](Cc2ccccc2)C(=O)N[C@@H](Cc2ccc(O)cc2)C(=O)N(C)CC(=O)N[C@@H](Cc2c[nH]c3ccccc23)C(=O)N[C@@H](Cc2ccc(O)cc2)C(=O)N[C@@H](CC(C)C)C(=O)N[C@H](C(=O)NCC(N)=O)CSCC(=O)N[C@@H](Cc2ccccc2)C(=O)N(C)[C@@H](Cc2ccccc2)C(=O)N1C [Example 3582] ({CH2CO}-F[NMeF][NMeNle][dAze]DV[NMeF]Y[Sar]WYLCG-NH2; thioether N-13) ; its IC50: 6.76 to 30.3 nM

###

Let's look at some molecules and their measured IC50.
# EXPERIMENTAL_SYSTEM: Human PD-L1/PD-1 (Homo sapiens, UniProt Q9NZQ7)
# Construct: made in house; host or cells: HEK293T
# PROTOCOL_TEXT: HTRF PD-1-Ig/PD-L1-His binding assay (human PD-L1)
# PROTOCOL_CONDITIONS: Table 8, Compound No. 1 variant macrocyclic peptides; read-out: HTRF Human PD-L1/PD-1 Binding Assay IC50
Positions of bridges follow the written chain, without caps; N, C: chain ends. Non-standard residues stand in square brackets, D forms with d. Residues, ends and D or L forms follow the SMILES beside them. ξ: configuration not given here. 3Thi = N[C@@H](Cc1ccsc1)C(=O)O; NMeNle = CCCC[C@H](NC)C(=O)O; NMeA = CN[C@@H](C)C(=O)O; ξC = NC(CS)C(=O)O; Sar = CNCC(=O)O
Answer format: numeric, nM implied, no suffix.

CCCC[C@H]1C(=O)N(C)[C@@H](CCCC)C(=O)N[C@@H](CCCNC(=N)N)C(=O)NC(C(=O)NCC(N)=O)CSCC(=O)N[C@@H](Cc2ccsc2)C(=O)N(C)[C@@H](C)C(=O)N[C@@H](CC(N)=O)C(=O)N2CCC[C@H]2C(=O)N[C@@H](Cc2cnc[nH]2)C(=O)N[C@@H](CC(C)C)C(=O)N(C)CC(=O)N[C@@H](Cc2c[nH]c3ccccc23)C(=O)N[C@@H](CO)C(=O)N[C@@H](Cc2c[nH]c3ccccc23)C(=O)N1C (some centres unmarked) [Compound No. 40] ({CH2CO}-[3Thi][NMeA]NPHL[Sar]WSW[NMeNle][NMeNle]R[ξC]G-NH2; thioether N-14) = 9

Proceed to the following item.
The molecule CCCC[C@H]1C(=O)N(C)[C@@H](CCCC)C(=O)N[C@@H](CCCNC(=N)N)C(=O)N[C@H](C(=O)NCC(N)=O)CSCC(=O)N[C@@H](Cc2ccc(O)cc2)C(=O)N(C)[C@@H](C)C(=O)N[C@@H](CC(N)=O)C(=O)N2CCC[C@H]2C(=O)N[C@@H](Cc2cnc[nH]2)C(=O)N[C@@H](CC(C)C)C(=O)N(C)CC(=O)N[C@@H](Cc2c[nH]c3ccccc23)C(=O)N[C@@H](CO)C(=O)N[C@@H](Cc2c[nH]c3ccccc23)C(=O)N1C [Compound No. 30] , tested on Human PD-L1/PD-1 (Homo sapiens, UniProt Q9NZQ7), showed IC50 of 5

###

# EXPERIMENTAL_SYSTEM: LK35.2-hPD-L1 cells / PE-labeled PD-1-Ig (Homo sapiens, UniProt Q9NZQ7)
# Construct: expressed in transfected cells; host or cells: LK35.2 mouse B cell line
# Sequence (Q9NZQ7 19-290): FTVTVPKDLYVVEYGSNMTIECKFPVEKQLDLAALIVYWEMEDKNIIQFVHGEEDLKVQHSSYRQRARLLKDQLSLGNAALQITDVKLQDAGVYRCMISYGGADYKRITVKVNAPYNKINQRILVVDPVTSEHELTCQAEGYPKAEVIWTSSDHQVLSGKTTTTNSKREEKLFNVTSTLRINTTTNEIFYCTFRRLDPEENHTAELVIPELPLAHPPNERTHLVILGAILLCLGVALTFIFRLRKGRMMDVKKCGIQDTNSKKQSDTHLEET
# PROTOCOL_TEXT: LK35.2-hPD-L1 cell binding high-content screening assay
# Assay type: cell-based
# PROTOCOL_CONDITIONS: cell binding assay, cell line not given; cluster symbol; read-out: CBA IC50 cluster
Positions of bridges follow the written chain, without caps; N, C: chain ends. Non-standard residues stand in square brackets, D forms with d. Residues, ends and D or L forms follow the SMILES beside them. ξ: configuration not given here. Bta = N[C@@H](Cc1csc2ccccc12)C(=O)O; Hyp = O=C(O)[C@@H]1C[C@@H](O)CN1; NMeNle = CCCC[C@H](NC)C(=O)O; NMeS = CN[C@@H](CO)C(=O)O; NMeA = CN[C@@H](C)C(=O)O; ξC = NC(CS)C(=O)O
EXPERIMENTAL_READOUT: IC50

CCCC[C@H]1C(=O)N(C)[C@@H](CCCC)C(=O)N[C@@H](CCCNC(=N)N)C(=O)NC(C(=O)NCC(N)=O)CSCC(=O)N[C@@H](Cc2ccc(O)cc2)C(=O)N(C)[C@@H](C)C(=O)N[C@@H](CC(N)=O)C(=O)N2CCC[C@H]2C(=O)N[C@@H](Cc2cnc[nH]2)C(=O)N[C@@H](CO)C(=O)N2C[C@H](O)C[C@H]2C(=O)N[C@@H](Cc2c[nH]c3ccccc23)C(=O)N[C@@H](CO)C(=O)N[C@@H](Cc2c[nH]c3ccccc23)C(=O)N1C (some centres unmarked) [Example 9069] ({CH2CO}-Y[NMeA]NPHS[Hyp]WSW[NMeNle][NMeNle]R[ξC]G-NH2; thioether N-14) = 0.158 to 4.71 nM

Okay, now this compound:
IC50 reading for CCCC[C@H]1C(=O)N(C)[C@@H](CO)C(=O)N[C@@H](CCCNC(=N)N)C(=O)NC(C(=O)NCC(N)=O)CSCC(=O)N[C@@H](Cc2ccc(O)cc2)C(=O)N(C)[C@@H](C)C(=O)N[C@@H](CC(N)=O)C(=O)N2CCC[C@H]2C(=O)N[C@@H](Cc2cnc[nH]2)C(=O)N[C@@H](CC(C)C)C(=O)N2CCC[C@H]2C(=O)N[C@@H](Cc2c[nH]c3ccccc23)C(=O)N[C@@H](CO)C(=O)N[C@@H](Cc2csc3ccccc23)C(=O)N1C (some centres unmarked) [Example 9044] ({CH2CO}-Y[NMeA]NPHLPWS[Bta][NMeNle][NMeS]R[ξC]G-NH2; thioether N-14) : 0.158 to 4.71 nM
